- experimentSummary: yeast display, Sf9 membrane polyspecificity reagent, FACS + sequencing; frameworks hold sequencing errors

{"itemSequence": "QVQLVESGGGLVQAGGSLRLSCAASGFIFSSNAMGWYRQAPGKEREFVAAISFRGGTTYYADSVKRRFTISRDNAKNTVYLQLNSLKPEDTAVYYCNAVRWRSGRWWWYDYWGQGTQVTVSS", "polyreactivity (PSR sort gate)": "low polyreactivity"}
{"itemSequence": "QVQLVESGGGLGQAGGSLRLSCAASGSTFYKYAMGWYRQAPGKERELVASITWSGTSTYYADSVKGRFTISRDNQKNTVFLQMNSLKAEDTAVYYCAAPKLDDYDYWGQGTQVTVSS", "polyreactivity (PSR sort gate)": "low polyreactivity"}
{"itemSequence": "QDQLVESRGGLVQAGGSLRLSCAASGSTFVNNAMGWYRQAPGKERELVAAIRSSDGRTYYADSVKGRFTISRDNAKNTVYLQMNSLKPEDSAVYYCATAVGTKYRTRIFEFYYWGQGTQVTVSS", "polyreactivity (PSR sort gate)": "high polyreactivity"}
{"itemSequence": "QVQLVESGGGLVQAGGSLRLSCAASGFIFYQYAMGWYRQAPGKERELVAAISTRGGSTYYADSVKGRFTISRDNAKNTVYLQMNSLKPEDTAVYYCNVLKYLSPGTYDYDYWGQGTQVTVSS", "polyreactivity (PSR sort gate)": "high polyreactivity"}
{"itemSequence": "QVQLLESAGGLVQAGGSLRLICAASGSTFYNYAMGWYRQAPGKERELVDSITSSGVSTYYADSVKGRFTISRDIAKNTVYLQMNSLKPDDTAVYYCNADDGYGQVHSISTYEMDYWGQGTQVTVSS", "polyreactivity (PSR sort gate)": "low polyreactivity"}
{"itemSequence": "QVQLVESGGGLVQAGGSLRLSCAASGSTFFSYAMGWYRQAPGKERELVAAISWIDDGTYYADSVKGRFTISRDNAKNTVYLQMNSLKPEDTAVYYCAADIGAYRTWDYEYWGQGTQVTVSS", "polyreactivity (PSR sort gate)": "low polyreactivity"}
{"itemSequence": "QVQLVESGGGLVQAGGSLRLSCDASGRILKYYDMGWYRQAPGKERELVAAISVSGTSTYYADSVKGRFTISRDNAKNTVYLQMNSLKPEDTAVYYCATATGRYSFDYWGQGTQVTVSS", "polyreactivity (PSR sort gate)": "low polyreactivity"}
{"itemSequence": "QVQLVESGGGLVQAGGSLRLSCAASGRTFGWYTMGWYRPAPGKERELVAAISRSGTSTYYADSVKGRFTISRDNAKNTVYLQMNSLKQEDTAVYYCAQYVNPRGGNYWGQGTQVTVSS", "polyreactivity (PSR sort gate)": "high polyreactivity"}
{"itemSequence": "QVQLVESGGGLVQAGGRLRLSCAASGRIFYYYAMGWYRQAPGKERELVAAINRSGGSTYYADSVKGRFTISRDNAKNTVYLQMNSLKPEDTAVYSCASYDYWGQGTQVTVSS", "polyreactivity (PSR sort gate)": "high polyreactivity"}
{"itemSequence": "QVQLVESGGGLVQAGGSLRLSCAASGIIFYYNTMGWYRQAPGKERELVAAISQRGGSTYYADSVKGRFTISRDNAKNTVYLQMNSLKPEDTAVYYCNKLRNSHGFRYDYWGQGTQVTVSS", "polyreactivity (PSR sort gate)": "high polyreactivity"}
{"itemSequence": "QVQLVESGGGLVQAGGSLRLSCAASGRTFQYNAMGWYRQAPGKERELVAVISRGGRTNYADSVKGRFTISRDNAKNTVYLQMNSLKPEDTAVYYCAADWYTPQGVGLDYWGQGTQVTVSS", "polyreactivity (PSR sort gate)": "low polyreactivity"}

---

- experimentSummary: yeast display, Sf9 membrane polyspecificity reagent, FACS + sequencing; frameworks hold sequencing errors

{"itemSequence": "QVQLVESAGGIVQAGGSLRLSFAASGSTFTRYAMGWYRPAPGKERELVAAIDGGGGSTSYADSVKGRFTISRDHAKNTVYLQMNSLKPEDTAVYYCAAPLDTSSRIFDYWGHGTQVTVSS", "polyreactivity (PSR sort gate)": "low polyreactivity"}
{"itemSequence": "QVQLVESGGGLVQAGGSLRLSCAASGSTFPVYAMGWYRQAPGKERELFAAISRAGSTNYADSVKGRFTISRDNAKNTVYLQMNSLKPEDTAVYYCAARGYLWAGEWYVRRDYWGQGTQVTVSS", "polyreactivity (PSR sort gate)": "high polyreactivity"}
{"itemSequence": "QVKLVESGGGLVQAGGSLRLSCAASGIIFSGNAMGWYRQAPGKERELVAAITRGGRTYYADSVKGRFTISRDNAKNTVYLQMNSLKPEDTAVYYCAADDPHRAREYDYWGQGTQVTVSS", "polyreactivity (PSR sort gate)": "high polyreactivity"}
{"itemSequence": "QVQLVESGGGLVQAGGSLRLSCAASGSIFVDYAMGWYRQAPGKERELVAAISSGGSTNYADSVKGRFTISRDNAKNTVYLQMNSLKPEDTAVYYCAADGSYGYDYWGQGTQVTVSS", "polyreactivity (PSR sort gate)": "low polyreactivity"}
{"itemSequence": "QFQLVESGGVLVQAGGSLRLSCAASGSTFNHYAMGWYRQARGKERELVADITKSGASTYADSVKGRFTISRDNAKNSVYLQMNSLKPEDTAVYYCAAGRRNYGTKGRGDYWGQGTQVTVSS", "polyreactivity (PSR sort gate)": "low polyreactivity"}
{"itemSequence": "QVQLVESGGGLVQAGGSLRLSCAASGSTLLANAMGWYRQAPGKERELVATITNSGGGTYYADSVKGRFTISRDNAKNTVYLQMNSLKPEDTAVYYCAAVYTGRSQYSKWRYEYWGQGTQVTVSS", "polyreactivity (PSR sort gate)": "low polyreactivity"}
{"itemSequence": "QVQLVESGGGLVQAGGSLRLSCAASARTFWAYAMGWYRQATGKEREWVAAITSSGTRTYYADSVKGRFTISRDNAKNTVYLKMNSLKPEDTAGYYCAAERIWLAHAYPTYVANDYWGQGTQVTVSS", "polyreactivity (PSR sort gate)": "high polyreactivity"}
{"itemSequence": "QVQLQERGGGLVQAGGSLRLSCAASGSIFQYTLMGWYLQAPGKEREFVAAITDGANTNYADSVKGRFSISRDNAKNTVNLQMNSLKPEETAVYYCATDYGYTDRVTSGFDYWGLGTQVTVSS", "polyreactivity (PSR sort gate)": "low polyreactivity"}
{"itemSequence": "QVQLVESGGGLVQAGGSLRLSCAASGRIFAVNAMGWYRQAPGKERELVAAINGGGSTNYADSVKGRFTISRDNAKNTVYLQMNSLKPEDTAVYYCAADVGWRSQTRGYYWGQGTQVTVSS", "polyreactivity (PSR sort gate)": "high polyreactivity"}
{"itemSequence": "QVQLVESGGGLVQAGGSLRLSCAASGRIFYSYAMGWYRQATGKEREMVASISRSGAITNYADSVKGRFTISRDNAKNPVYLQMNSLIPEDTAVYYCAARLRRVYPPYDYWGQGTQVTVSS", "polyreactivity (PSR sort gate)": "high polyreactivity"}
{"itemSequence": "QVQLVESGGGLVQAGGSLRLSCAASGGTLYIYAMGWDRQAPGKERELVAAIRGRGGSTYADSVKGRCTISRDNAKNTVYLQMNSLKPEDTAVYYCAASGIRYWLPYDYWGQGTQVTVSS", "polyreactivity (PSR sort gate)": "high polyreactivity"}
{"itemSequence": "QVQLVDSGVGLVQAGGSLRLSCASSGSTFTINAMACYRHAPGKERELVAAISSGDSYYADSVKGRFTISRDNAKNTVYLQMNSLKPEDTTAVYYCAADSPGDSSKYDYWGQGTQVTVSS", "polyreactivity (PSR sort gate)": "low polyreactivity"}
{"itemSequence": "QVQLVESGGGLVQAGGSLRLSCAASGSTFAANAMGWYRQAPGKERELVAVIRRGGSTTYADSVKGRFTISRDNAKNTVYLQMNSLKPEDTAVYYCHARVTLGRPLFTYLVRYEYWGQGTQVTVSS", "polyreactivity (PSR sort gate)": "high polyreactivity"}
{"itemSequence": "QVQLVESGGGLVQAGGSLRLTCAAYGRIFRGYAMGWYRQAPGKERDLVAAISGSGGSTYNADSVKGRFTISRDNAKNTVYLQMNSLKPEDTAVYYCNAGWYFYGETTDDYWGQGTQVTVSS", "polyreactivity (PSR sort gate)": "low polyreactivity"}
{"itemSequence": "QVQLVESGGGLVQAGGSLRLSCAASGRTFEGNAMGWYRQAPGKESELVAAITSGGRTNYADSVKGRFTISRDNAKNTVYLQMNCLKPEDPAVYYCAVETRDRSNYFPGQAYDYWGQGTQVTVSS", "polyreactivity (PSR sort gate)": "low polyreactivity"}
{"itemSequence": "QVQLVESGGGLVQAGGSLRLSCAASGRILDIYAMGWYRQAPGKDRELVAAINSDGRTYYADSVKGRFTISRDNAKNTVYLQMNSLKPEDTAVYYCNARHHNKVARFDYWGQGTQVTVSS", "polyreactivity (PSR sort gate)": "low polyreactivity"}
{"itemSequence": "QDQLVESGGGLVQAGGSLRLSCAASGFTFGYYAMGWYRQAPGKERELVAAISSGSSTYYADSVKGRFTISRDNAKNTVDLQMISLTPEDTAVFYCAATGDNNTPSGYDYWGQGTQVTVSS", "polyreactivity (PSR sort gate)": "high polyreactivity"}
{"itemSequence": "QVQLVESGGGLVQAGGSLRLSCAASGFTLVKYVMGWYRQAPGKERELVAAINRSGTSTYYADSVKGRFTISRDNAKYSVYLQMNSLKPEDTAVYYCNADWYRKRNYWGQGTQVTVSS", "polyreactivity (PSR sort gate)": "high polyreactivity"}
{"itemSequence": "QVQLVESGGGLVQAGGSLRLSCAASGSIFNVYVMGWYRQAPGKERELVASITWTTGSTYADSVKGRFTISRDNAKNTVYLQMNSLKPEDTAVYYCNAEFPEDTSDDYWGQGTQVTVSS", "polyreactivity (PSR sort gate)": "low polyreactivity"}
{"itemSequence": "QVQLVESGGCLVQAGGSLRLSCAASGSIFKWYAMGWYRQAPGKERELVAAITRGGSTNYADSVQGRFTISRDNAKNTVYLQMNSLKPEDTAVYYCNAVYTYRSGFGYWGQGTQVTVSS", "polyreactivity (PSR sort gate)": "low polyreactivity"}
{"itemSequence": "QVQLVESGGGLVQAGGSLRLSCAASGRIFAWYSMGWYRQAPGEERELVAGISWICGSTYNADSVKGRFTISRDNAKNTVYLQMNSLKPEDTAVYYCNARKKPGSLLDIIGYDYWGQGTQVTVSS", "polyreactivity (PSR sort gate)": "low polyreactivity"}
